Task for the reader: assign each of the following compounds its reported MIC.
test system: Bacteria; experiment: Antibacterial activity against Gram negative bacteria; format: functional
Field: numeric (µg/mL). Do not append units.

// query MIC value for entry C[C@@H](O)[C@H]1C(=O)N2C(C(=O)[O-])=C(c3ccc4c(c3)-c3ccc(C[N+]56CC[N+](CC(N)=O)(CC5)CC6)cc3C4=O)C[C@H]12.[Cl-]
1.05

// query MIC value for entry C[C@@H](O)[C@H]1C(=O)N2C(C(=O)O)=C(SCCNC=N)C[C@H]12 [IMIPENEM ANHYDROUS]
0.45

// query MIC value for entry C[C@@H](O)[C@H]1C(=O)N2C(C(=O)[O-])=C(c3ccc4c(c3)-c3ccc(C[N+]56CC[N+](CC(N)=O)(CC5)CC6)cc3C4=O)[C@H](C)[C@H]12.[Cl-]
3.6

// query MIC value for entry C[C@@H](O)[C@H]1C(=O)N2C(C(=O)[O-])=C(c3ccc4c(c3)-c3ccc(C[n+]5ccn(C)c5)cc3C4=O)C[C@H]12
1.37

----------
system: Staphylococcus sp.; test: Antibacterial activity against methicillin-resistant coagulase negative Staphylococci (MRCNS); type: functional
Task for the reader: assign each of the following molecules its reported MIC90.
Field: numeric (µg/mL). Do not append units.

// query MIC90 value for entry C[C@@H](O)[C@H]1C(=O)N2C(C(=O)O)=C(c3ccc4c(c3)-c3ccc(C[N+]56CC[N+](CC(=O)Nc7ccc(CCO)cc7)(CC5)CC6)cc3C4=O)[C@H](C)[C@H]12.[Cl-].[Cl-]
4

// query MIC90 value for entry C[C@@H](O)[C@H]1C(=O)N2C(C(=O)O)=C(c3ccc4c(c3)-c3ccc(C[N+]56CC[N+](CCO)(CC5)CC6)cc3C4=O)[C@H](C)[C@H]12.[Cl-].[Cl-]
8

// query MIC90 value for entry C[C@@H](O)[C@H]1C(=O)N2C(C(=O)O)=C(c3ccc4c(c3)-c3ccc(C[N+]56CC[N+](CC(=O)Nc7ccccc7)(CC5)CC6)cc3C4=O)C[C@H]12.[Cl-].[Cl-]
1

// query MIC90 value for entry C[C@@H](O)[C@H]1C(=O)N2C(C(=O)O)=C(c3ccc4c(c3)-c3ccc(C[N+]56CC[N+](CC(=O)Nc7ccc(C(N)=O)cc7)(CC5)CC6)cc3C4=O)[C@H](C)[C@H]12.[Cl-].[Cl-]
2

// query MIC90 value for entry C[C@@H](O)[C@H]1C(=O)N2C(C(=O)O)=C(c3ccc4c(c3)-c3ccc(C[N+]56CC[N+](CCCO)(CC5)CC6)cc3C4=O)[C@H](C)[C@H]12.[Cl-].[Cl-]
8

// query MIC90 value for entry C[C@@H](O)[C@H]1C(=O)N2C(C(=O)O)=C(c3ccc4c(c3)-c3ccc(C[N+]56CC[N+](CCO)(CC5)CC6)cc3C4=O)C[C@H]12.[Cl-].[Cl-]
4

// query MIC90 value for entry C[C@@H](O)[C@H]1C(=O)N2C(C(=O)O)=C(c3ccc4c(c3)-c3ccc(C[N+]56CC[N+](C)(CC5)CC6)cc3C4=O)C[C@H]12.[Cl-].[Cl-]
4

// query MIC90 value for entry CC[N+]12CC[N+](Cc3ccc4c(c3)C(=O)c3ccc(C5=C(C(=O)O)N6C(=O)[C@H]([C@@H](C)O)[C@H]6C5)cc3-4)(CC1)CC2.[Cl-].[Cl-]
4

// query MIC90 value for entry C[C@@H](O)[C@H]1C(=O)N2C(C(=O)O)=C(c3ccc4c(c3)-c3ccc(C[N+]56CC[N+](CC(=O)Nc7nccs7)(CC5)CC6)cc3C4=O)[C@H](C)[C@H]12.[Cl-].[Cl-]
8

// query MIC90 value for entry C[C@@H](O)[C@H]1C(=O)N2C(C(=O)O)=C(c3ccc4c(c3)-c3ccc(C[N+]56CC[N+](CCOc7ccccc7)(CC5)CC6)cc3C4=O)[C@H](C)[C@H]12.[Cl-].[Cl-]
4

// query MIC90 value for entry COc1ccc(NC(=O)C[N+]23CC[N+](Cc4ccc5c(c4)C(=O)c4ccc(C6=C(C(=O)O)N7C(=O)[C@H]([C@@H](C)O)[C@H]7[C@H]6C)cc4-5)(CC2)CC3)cc1.[Cl-].[Cl-]
4

// query MIC90 value for entry COc1ccccc1NC(=O)C[N+]12CC[N+](Cc3ccc4c(c3)C(=O)c3ccc(C5=C(C(=O)O)N6C(=O)[C@H]([C@@H](C)O)[C@H]6[C@H]5C)cc3-4)(CC1)CC2.[Cl-].[Cl-]
4

// query MIC90 value for entry C[C@@H](O)[C@H]1C(=O)N2C(C(=O)O)=C(c3ccc4c(c3)-c3ccc(C[N+]56CC[N+](Cc7ccccc7)(CC5)CC6)cc3C4=O)[C@H](C)[C@H]12.[Cl-].[Cl-]
8

// query MIC90 value for entry C[C@@H](O)[C@H]1C(=O)N2C(C(=O)[O-])=C(c3ccc4c(c3)-c3ccc(C[N+]56CC[N+](CC(N)=O)(CC5)CC6)cc3C4=O)C[C@H]12.[Cl-]
2

----------
test system: Enterococcus faecalis; assay: Antibacterial activity against Enterococcus faecalis; type: functional
assayEndpoint: MIC (µg/mL)
Field: numeric (µg/mL). Do not append units.

// query MIC value for entry C[C@@H](O)[C@H]1C(=O)N2C(C(=O)[O-])=C(c3ccc4c(c3)-c3ccc(C[N+]56CC[N+](CC(N)=O)(CC5)CC6)cc3C4=O)[C@H](C)[C@H]12.[Cl-]
0.5

// query MIC value for entry C[C@@H](O)[C@H]1C(=O)N2C(C(=O)[O-])=C(c3ccc4c(c3)-c3ccc(C[n+]5ccn(C)c5)cc3C4=O)C[C@H]12
0.125

// query MIC value for entry C[C@@H](O)[C@H]1C(=O)N2C(C(=O)[O-])=C(c3ccc4c(c3)-c3ccc(C[N+]56CC[N+](CC(N)=O)(CC5)CC6)cc3C4=O)C[C@H]12.[Cl-]
0.125

// query MIC value for entry C[C@@H](O)[C@H]1C(=O)N2C(C(=O)O)=C(SCCNC=N)C[C@H]12 [IMIPENEM ANHYDROUS]
2

----------
Task for the reader: assign each of the following compounds its reported MIC90.
test system: Staphylococcus sp.; assay: Antibacterial activity against methicillin-resistant coagulase negative Staphylococci (MRCNS); assay type: functional
Field: numeric (mg/L). Do not append units.

// query MIC90 value for entry CC(C)NC(=O)C[N+]12CC[N+](Cc3ccc4c(c3)C(=O)c3ccc(C5=C(C(=O)O)N6C(=O)[C@H]([C@@H](C)O)[C@H]6[C@H]5C)cc3-4)(CC1)CC2.[Cl-].[Cl-]
8

// query MIC90 value for entry C[C@@H](O)[C@H]1C(=O)N2C(C(=O)O)=C(c3ccc4c(c3)-c3ccc(C[N+]56CC[N+](CC(=O)c7ccccc7)(CC5)CC6)cc3C4=O)C[C@H]12.[Cl-].[Cl-]
4

// query MIC90 value for entry CN[C@H](CC(C)C)C(=O)N[C@H]1C(=O)N[C@@H](CC(N)=O)C(=O)N[C@H]2C(=O)N[C@H]3C(=O)N[C@H](C(=O)N[C@H](C(=O)O)c4cc(O)cc(O)c4-c4cc3ccc4O)[C@H](O)c3ccc(c(Cl)c3)Oc3cc2cc(c3O[C@@H]2O[C@H](CO)[C@@H](O)[C@H](O)[C@H]2O[C@H]2C[C@](C)(N)[C@H](O)[C@H](C)O2)Oc2ccc(cc2Cl)[C@H]1O
4

// query MIC90 value for entry COC(=O)C[N+]12CC[N+](Cc3ccc4c(c3)C(=O)c3ccc(C5=C(C(=O)O)N6C(=O)[C@H]([C@@H](C)O)[C@H]6C5)cc3-4)(CC1)CC2.[Cl-].[Cl-]
16

// query MIC90 value for entry C[C@@H](O)[C@H]1C(=O)N2C(C(=O)O)=C(c3ccc4c(c3)-c3ccc(C[N+]56CC[N+](CC(=O)Nc7ccccc7C(N)=O)(CC5)CC6)cc3C4=O)[C@H](C)[C@H]12.[Cl-].[Cl-]
8

----------
system: Mus musculus; assay: In vivo antibacterial activity against MSSA MB 2985 strain at the dose ~4 *10e7 cfu in brain heart broth along with antibiotic by sc administration at 0 hour in mice; type: functional
assayEndpoint: ED50 (mg/kg)
Field: numeric (mg/kg). Do not append units.

// query ED50 value for entry C[C@@H](O)[C@H]1C(=O)N2C(C(=O)[O-])=C(c3ccc4c(c3)-c3ccc(C[n+]5ccn(C)c5)cc3C4=O)C[C@H]12
0.034

// query ED50 value for entry C[C@@H](O)[C@H]1C(=O)N2C(C(=O)[O-])=C(c3ccc4c(c3)-c3ccc(C[N+]56CC[N+](CC(N)=O)(CC5)CC6)cc3C4=O)[C@H](C)[C@H]12.[Cl-]
0.021

// query ED50 value for entry C[C@@H](O)[C@H]1C(=O)N2C(C(=O)[O-])=C(c3ccc4c(c3)-c3ccc(C[N+]56CC[N+](CC(N)=O)(CC5)CC6)cc3C4=O)C[C@H]12.[Cl-]
0.042

// query ED50 value for entry CN[C@H](CC(C)C)C(=O)N[C@H]1C(=O)N[C@@H](CC(N)=O)C(=O)N[C@H]2C(=O)N[C@H]3C(=O)N[C@H](C(=O)N[C@H](C(=O)O)c4cc(O)cc(O)c4-c4cc3ccc4O)[C@H](O)c3ccc(c(Cl)c3)Oc3cc2cc(c3O[C@@H]2O[C@H](CO)[C@@H](O)[C@H](O)[C@H]2O[C@H]2C[C@](C)(N)[C@H](O)[C@H](C)O2)Oc2ccc(cc2Cl)[C@H]1O
3.7

// query ED50 value for entry C[C@@H](O)[C@H]1C(=O)N2C(C(=O)O)=C(SCCNC=N)C[C@H]12 [IMIPENEM ANHYDROUS]
0.021
